Experiment: folding stability dG unfold from chymotrypsin proteolysis; higher = more stable
The following sequences are listed with their measured folding stability dG unfold values.
Write the answer as a number in kcal/mol, unit excluded.

SAGGSAGGSAGGSITITWNPESGTVKIKPPNNKKEIEIPAENMTPSQIIDQAKDNGVEVSAGGSAGGSAGGS [r4_49_TrROS]	1.39
SAGGSAGGSKVFTVEELENMTPEEIRALIKKSKKPVIIVAKSEEEKKRAAELLKELGVEVKVLSAGGSAGGS [r12_97_TrROS_Hall]	3.6
SAGVKPTPSGKNILEIDPETGKIRFVNNNGELFELPTGNDSLDAAIKEAVEKLGYPPDTPFNIDEIKIGSAG [r5_923_TrMRF]	1.76

Now consider a different sequence.
Request: Look up folding stability dG unfold: MSEEELRELEERLAAPGPVEVRVEVEVREEEGDEPVFVFRVRYYRPEPGEELGEEEIVVPEEELEELLRELS [r1_415_TrMRF]
Result: 2.31

---

Test: folding stability dG unfold (combined trypsin and chymotrypsin); higher = more stable
Measured Quantity: folding stability dG unfold (kcal/mol)
Answer format: numeric, kcal/mol implied, no suffix.

Request: Name the reported folding stability dG unfold value associated with the sequence SAGGSAGGSMPKKTYEFEIEYEDPEEAVEKAIREFEEETGEKIEEVEVEYDPEKGIVKITLVKSAGGSAGGS [r12_265_JUSTAS]
Result: 1.27

Request: Then what about the sequence SAGGMMKIKITIINENGETLTIEIEVPEEDLEEAIKALEDELKKKGYEIESIERVNGKITITVRIKPSAGGS [r16_662_TrROS_Hall] ?
Result: 4.12

Request: Ok, now SAGGSAGGSAGSVTLPKNQVGVSVESYEVTLPDETGESVTRYKITLRFAETGLSAEFYAGSAGGSAGGSAGG [r17_266_TrMRF]
Result: 1.26

Request: Same question for SAGGSAGGSAGKFKIKVFTHPDGYALALIEVPLGDKPVLILTLIKFPEDGNAEAETFIFPSAGGSAGGSAGG [r11_555_TrMRF] please.
Result: 2.84

---

Assay: folding stability dG unfold from chymotrypsin proteolysis; higher = more stable
Cut-off 0.8 kcal/mol on folding stability dG unfold, inclusive. At or above means t; below means f.

A selection of reference data follows.
SAGGSAGGSKEEIRKRIAERLRELIPDAKITSIEFDEKTKKITITVDSPEVREALEKLPGIKPSAGGSAGGS [r12_623_TrROS_Hall]	t
SAGGSAGGSAGGMTTLVLPAEVEPVPDGVRVRLPDGEDLYVPPGERVERTPDRVEVTLGSAGGSAGGSAGGS [r10_305_JUSTAS]	f
SAGGSAGGSAGGKPKKILNIELVLKGKDGKKYKLKIEIYNYPDKPKIYITFPDGTTIEASAGGSAGGSAGGS [r10_404_TrMRF]	t

Request: Could you please find out whether SAGGKPLLIKVKVRLKNGKELTITVREGESLEEILARARELLGKPIEVEKIEVIPLPPKKEVKKKEKSAGGS [r8_285_TrROS_Hall] has folding stability dG unfold that meets 0.8 kcal/mol or exceeds it?
Result: t

Request: Similarly, SAGGASLDDLPLEGIEVLEEEVIPLPNGSTLRKFLVKKPSPGPPELLVEVTEFVDEGSSSVSVTPLGSAGGS [r16_469_JUSTAS] ?
Result: f

Request: Queued: SAGGSADENGKPKPTLIIKIEVEHPNGQKFPLSFIFKSPEEAEEIANELANNGYEVNIRLMPLDQISAGGSA [r15_906_TrROS]
Result: t

Request: Similarly, SAGGSAGGSAMVRIEFENGLVAEFPSDLPLEEVKEKAVELAKLLSNDKKPVKVKILDIKEEGSAGGSAGGSA [r18_213_TrMRF] ?
Result: f

Request: Then this sequence: SMTVSNPRGKTVTVTVTVTVDPNKKSVTVPVTIRTAGEELTFTFTVPKGVNKPVTFSLTVPLPPGSSVISSA [r9_973_JUSTAS]
Result: t

Request: And SAEIEVKPGEELEITVNGKKLRITVEKVEVRVEVKELPPPPPPEVEVYTLTRDPATDELRLERRTAEELASA [r9_881_TrROS_Hall] ?
Result: f

---

Test: folding stability dG unfold (combined trypsin and chymotrypsin); higher = more stable
Measured Quantity: folding stability dG unfold (kcal/mol)
// note: answer is a bare numeric in kcal/mol

Example results:
SAGGSAMGTLRLGFVTGPDEEGRYEILDVTLEPGEPVLVTLRARFTFPDGDSVEVPFRFVVPPELLSAGGSA [r15_187_TrMRF]	2.96
SAGGSSIKIPNPNGYEIEIEVTPDRAKIKWRMPGKEQEQEFPPGEDVTIRFPDGMPLTIKIPPPGESAGGSA [r2_57_TrROS]	0.424
SAGGSAKRKVEIEIYISREELEEAKKNGKEPTAEAQKQIHRIAKRAREEGMDTVEIKIIPPGQPIPSAGGSA [r15_304_TrROS]	0.309
SAGGPGMEPIGEIKLDDGVTIEVWRPPNGWYRAKVEFPDNGKQINYPFNPNMSFEQAKDQIKELARKLSAGG [r13_624_TrROS]	1.52
SAGGSAKKVRIEIERNADGTLRITVTLPDGTKKEITVDKPGMTLEEIAKKLGLPEGAEITEIERVPSAGGSA [r15_167_TrROS_Hall]	2.83

Request: Record request: folding stability dG unfold value, item SAGGGLGADALAKKFKELFPNAKVEKLPNGKVLFYIPETGKLIEIYDLDDEQIIKIIDPNTPKVYIISAGGS [r16_478_TrMRF]
Result: 1.44

Request: What about SAGGSAGGSALAEELAAKYPGLQVEVTRVEVEREVTDADGRKRTERVERLEIRVVKPGEELSAGGSAGGSAG [r3_358_TrROS_Hall] ?
Result: 0.164

---

Test: folding stability dG unfold from chymotrypsin proteolysis; higher = more stable
Classify by measured folding stability dG unfold: Condition met if it is equal to or exceeds 2 kcal/mol, Condition not met if it is smaller.

SAGGSAGGSAGGDRLKIIIPFPPGMDIDQIAEELKPHFKKVEIEHDKEDGWVTIEVELDSAGGSAGGSAGGS [r10_1007_TrROS]	Condition not met
SARIRIMVPPDFIMVRTPKGKMRMVDDPEEIEEIIKDILPVPIEIEPLPPNSPKFQKMMEMMMREQNGPSAG [r14_235_TrROS]	Condition not met
SAGGSAGGSAGVIRVKLKDGPVREIPLEDVPPELLNTPELLAAIEALAREAGYEIESIEASAGGSAGGSAGG [r11_467_TrMRF]	Condition met
SAGGTIIINFTWSDIKDILDYLKDNKDWKITIWMGNKPVEYPLDDLEEILQNIPMPPGQPFWIEITPSAGGS [r16_377_TrROS]	Condition met

Request: Dear colleague, could you confirm whether SAGGSAGGMTVTTTSSFDPTSPTANTLTTTYVSPEELKRPEIQALPDLPGKTLEFPTTTPVPPPSAGGSAGG [r6_768_JUSTAS] has folding stability dG unfold at or above 2 kcal/mol?
Result: Condition not met

Request: Now consider SAGGSAKKTIKITIEVDGKTIEITKITVNENGEVTIEVKITNKNGKETKTIKITMTVEELKALLKSSAGGSA [r15_56_TrROS_Hall] .
Result: Condition met

Request: What do you get for SSVTLVLEKPLPSGKRLVVVTTLKPEPARGTVRLDVTTTTYTFSKTENGEITTSSTTSTSTETVSPEELLSA [r9_1137_JUSTAS] ?
Result: Condition met

---

Assay: folding stability dG unfold (combined trypsin and chymotrypsin); higher = more stable
Measured Quantity: folding stability dG unfold (kcal/mol)
Report only the number, with the unit kcal/mol understood.

SAGGSAGGSAMVRIEFENGLVAEFPSDLPLEEVKEKAVELAKLLSNDKKPVKVKILDIKEEGSAGGSAGGSA [r18_213_TrMRF]	0.407
SAGGSAGGSAGGGTAEELAKELEDLGYKVKLEPEGDYLLLTVTDPDNDKPYVILLDPETISAGGSAGGSAGG [r7_0_TrMRF]	0.991
SAGGSAGGSAIWIPSPEAADEIMDILAKKNGYKINIEPIGQDEDGGMVYEIEIVPPGQPLTSAGGSAGGSAG [r3_59_TrROS]	0.484
SAGGSAGGMIEVESFPEIGYILVKAKSEKPEEIAKEVLEKFNVKEAVVFEDPEKPYVYILAKIDSAGGSAGG [r6_661_TrMRF]	1.13
SAGGSAGGSAGGGPAKALITSPDGSKAEATVTVDTATGTVTLTVENASLPPDWKLELLGSAGGSAGGSAGGS [r10_306_TrMRF]	0.0987
SNNKRITIEIPFPMPAEQARNFMEAFGIKKIEYEKHDDPGYYRVKYTVPDDNVTIDIHIFPPPVPPGQKPSA [r9_1090_TrROS]	1.67
SAPPYYIVIKFKMELPPPTPEDAKEYDPDGEVRRTTVEMTFVIPIPPEDLEDLKDFMQSLGIEEIEIFKSAG [r14_509_TrROS]	2.56
SAGGSAGGSAGGSWKIDKFTSIERTDGGYVIRIRMENPDGPPMKQTFYFPPGDDELANISAGGSAGGSAGGS [r4_253_TrROS]	0.344
SAGGSAGGSEITILIKDENGYLIKVKVELKLKKNKDGKKTLELKIEITEIYKVPSKEEAKKLLSAGGSAGGS [r12_915_TrROS_Hall]	1.78
SAGGIRIKPGQILVIDIERPTGNERKIIIPMDDPEEVIEQLGFPPENFRIKDIEVVPMPPEQAKDFLESAGG [r13_850_TrROS]	0.321

Request: Give the measured folding stability dG unfold of SAGGLAEYIARYLQENDPRARVEAEEGDVLDGVRVIRVRVERVDDAFGGDIPSSADFILVIPAGAPPTSAGG [r19_8_TrMRF] .
Result: 1.38
